- Test system: Escherichia coli TOP10
- experiment description: shrunken log2 fold change of peptide-encoding DNA abundance (4.5 h post-induction vs induction); higher = less antimicrobial activity (less host growth inhibition)
- stated conditions: time post-induction: 4.5 h; library: site-saturation at positions 5, 18, 19, 20
Rule: shrunken log2 fold change of 0.007 or more gives satisfied; anything lower gives not satisfied.

{"columns": ["item sequence", "class assignment"],
 "data": [
  ["RRIRMRPPRLPRPRPRPVCLPRP", "satisfied"],
  ["RRIRTRPPRLPRPRPRPGNYPRP", "satisfied"],
  ["RRIRNRPPRLPRPRPRPTDEPRP", "satisfied"],
  ["RRIRDRPPRLPRPRPRPSLYPRP", "satisfied"],
  ["RRIRLRPPRLPRPRPRPVIRPRP", "not satisfied"],
  ["RRIRVRPPRLPRPRPRPPKIPRP", "not satisfied"],
  ["RRIRDRPPRLPRPRPRPKKNPRP", "satisfied"],
  ["RRIRGRPPRLPRPRPRPDLRPRP", "not satisfied"]
]}

###

- Test system: Escherichia coli TOP10;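 further: peptides expressed intracellularly from a pBAD plasmid library in pooled LB shake-flask culture, induced with 0.3% L-arabinose, DNA abundance read by NGS, three biological replicates, DESeq2 with apeglm shrinkage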
- experiment description: shrunken log2 fold change of peptide-encoding DNA abundance (4.5 h post-induction vs induction); higher = less antimicrobial activity (less host growth inhibition)
- stated conditions: time post-induction: 4.5 h; library: site-saturation at positions 5, 18, 19, 20
Documented shrunken log2 fold change across a set of sequences

{"columns": ["item sequence", "shrunken log2 fold change"],
 "data": [
  ["RRIRMRPPRLPRPRPRPGDVPRP", 0.333],
  ["RRIRARPPRLPRPRPRPVHQPRP", 0.346],
  ["RRIRYRPPRLPRPRPRPLLNPRP", -0.19],
  ["RRIRWRPPRLPRPRPRPSVSPRP", 0.104],
  ["RRIRLRPPRLPRPRPRPTKWPRP", -0.0762],
  ["RRIRLRPPRLPRPRPRPKNAPRP", -0.238],
  ["RRIRKRPPRLPRPRPRPYFDPRP", -0.383],
  ["RRIRWRPPRLPRPRPRPDGIPRP", 0.151],
  ["RRIRARPPRLPRPRPRPRPSPRP", 0.622],
  ["RRIRVRPPRLPRPRPRPFAKPRP", -0.307],
  ["RRIRWRPPRLPRPRPRPESHPRP", 0.189],
  ["RRIRERPPRLPRPRPRPERMPRP", -0.0648],
  ["RRIRYRPPRLPRPRPRPKQGPRP", 0.0737],
  ["RRIRTRPPRLPRPRPRPVCGPRP", 0.179],
  ["RRIRCRPPRLPRPRPRPYGSPRP", -0.517],
  ["RRIRIRPPRLPRPRPRPRALPRP", 0.0988],
  ["RRIRRRPPRLPRPRPRPYCGPRP", -0.379],
  ["RRIRERPPRLPRPRPRPRTPPRP", 0.214],
  ["RRIRKRPPRLPRPRPRPEAAPRP", 1.8],
  ["RRIRTRPPRLPRPRPRPSFMPRP", -0.412],
  ["RRIRIRPPRLPRPRPRPMKRPRP", 0.0451],
  ["RRIRSRPPRLPRPRPRPEVGPRP", 0.726],
  ["RRIRVRPPRLPRPRPRPDLVPRP", 0.211],
  ["RRIRNRPPRLPRPRPRPNYPPRP", -0.0819],
  ["RRIRTRPPRLPRPRPRPFISPRP", -0.0743],
  ["RRIRTRPPRLPRPRPRPRDWPRP", 0.483],
  ["RRIRARPPRLPRPRPRPWEQPRP", 0.248],
  ["RRIRERPPRLPRPRPRPFPLPRP", -0.134],
  ["RRIRHRPPRLPRPRPRPQDYPRP", -0.101],
  ["RRIRLRPPRLPRPRPRPLWTPRP", -0.0559],
  ["RRIRLRPPRLPRPRPRPFQVPRP", -0.0146],
  ["RRIRERPPRLPRPRPRPHPSPRP", -0.222],
  ["RRIRVRPPRLPRPRPRPIPRPRP", 0.0796],
  ["RRIRMRPPRLPRPRPRPAGLPRP", 0.47],
  ["RRIRRRPPRLPRPRPRPVPRPRP", 0.518],
  ["RRIRYRPPRLPRPRPRPSTRPRP", -0.367],
  ["RRIRMRPPRLPRPRPRPGCPPRP", 0.521],
  ["RRIRDRPPRLPRPRPRPTIVPRP", 0.0194],
  ["RRIRIRPPRLPRPRPRPDMCPRP", 0.00741],
  ["RRIRQRPPRLPRPRPRPQFHPRP", -0.591],
  ["RRIRFRPPRLPRPRPRPVSLPRP", -0.00718],
  ["RRIRWRPPRLPRPRPRPCIGPRP", -0.148],
  ["RRIRYRPPRLPRPRPRPNIRPRP", 0.0146],
  ["RRIRIRPPRLPRPRPRPQASPRP", -0.0941],
  ["RRIRGRPPRLPRPRPRPHNTPRP", -0.277],
  ["RRIRCRPPRLPRPRPRPSHRPRP", -0.508],
  ["RRIRTRPPRLPRPRPRPSQAPRP", 0.0983],
  ["RRIRHRPPRLPRPRPRPNDAPRP", -0.2],
  ["RRIRPRPPRLPRPRPRPAHGPRP", 0.708],
  ["RRIRQRPPRLPRPRPRPDSGPRP", -0.0171],
  ["RRIRARPPRLPRPRPRPSNCPRP", -0.285]
]}
